# TESTED SYSTEM: T1, recombinant protein consisting of the extracellular domain of human TREM2 fused to the His tag (human, UniProt Q9NZC2 19-174)
# T1 construct: also called His tagged hTREM2; His-TREM2
# T1 sequence: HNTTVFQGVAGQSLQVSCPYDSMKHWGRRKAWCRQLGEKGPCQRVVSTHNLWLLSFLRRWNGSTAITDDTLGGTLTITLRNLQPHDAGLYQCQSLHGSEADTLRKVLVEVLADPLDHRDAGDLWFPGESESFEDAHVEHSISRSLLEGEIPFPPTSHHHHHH
# PROTOCOL NOTES: direct ELISA, coated His-TREM2 0.5 ug/mL, Ab stock 1 mg/mL
PARAMETER: OD at dilution 2187000 (OD)

BINDER	UNIT ANNOTATION	ENDPOINT VALUE
83E10B12 (antibody, V domains shown, Biotin conjugated in sup ELISA, cell-based ELISA and flow cytometry) VH: QVQLQESGPELVKPGASVKISCKASGYIFSYSWMNWVKQRPGKGLEWIGRIYPGDGDADYNGKFKGKATLTADKSSNTAYMQLTSLTSEDSAVYFCARLHIYDGYYVSVYWGQGTLVTVSA VL: DIQMTQTTSCLSASLGDRVTISCRASQDINNYLSWYQQKPDGTVKLLIYYTSKLHSGVPSRFSGSGSGTDYSLTIGNLEQEDVATYFCQQGDTLPWTFGGGTRLEIK	OD	0.068
54H2C1 (antibody, V domains shown, Biotin conjugated in sup ELISA, cell-based ELISA and flow cytometry) VH: QVQLQQPGAEPLTPGASVKMSCEASGYTFTNFWITWVKLRPGQGLEWIGDIYPGSGNTNYNEKFKSRATLTVDTSSTTAYMQLSSLTSEDSAVYYCAREAYYTNPGFAYWGHGTLVTVSA VL: DVLMTQSPLSLPVNLGDQASISCKSSQNIVHSNGNTYLEWYLQRPGQSPKLLIYKVSNRFSGVPDRFSGSGSGTDFTLKISRVEAEDLGLYYCFQGSHVPYTFGGGTKLEIK	OD	0.106
61B11C9 (antibody, V domains shown, Biotin conjugated in sup ELISA, cell-based ELISA and flow cytometry) VH: QLQESGPEQVKPGASVKMSCRTSGYTFTAYNMHWVKQRLGKSLEWIGYIRPTNGDTRYNRRFRDKATLTVDKSSSTTYMELRSLTSEDSAVYYCTRSTTVASFDYWGQGTTLTVSS VL: DIVMTQTTSSLTVSVGQKITLNCKSSQSLLYTNNQKNFLAWYQQKPGQSPKLLIYWASTRDSGVPDRFTGSGSGTDFTLTITSVMAEDLAVYFCQQYYDFPPTFGGGTKLEIK	OD	0.169
